Test system: P. falciparum male gametocytes
Experiment: P. falciparum Dual Gamete Formation Assay (PfDGFA), male readout (exflagellation)
Type: cell-based, Plasmodium falciparum NF54
Conditions: 2µM, 24h preincubation with gametocytes; replicate R4
observation_type: % inhibition male (individual replicates) R4 (%)
Answer with a number only, understood to be in %.

The cases that follow already have their % inhibition male (individual replicates) R4 on record.
COc1cc2ccccc2cc1CCNCCCCNCCc1cc2ccccc2cc1OC.CS(=O)(=O)O; 97.4
O=C(O)C(=O)O.Oc1c(CN2CCC(Cc3ccccc3)CC2)cc(Cl)c2cccnc12; 86.9

Exercise: Please look at `Cl.Clc1ccc(OCCC2CCN(CCCCCCCN3CCC(CCOc4ccc(Cl)c(Cl)c4)CC3)CC2)cc1Cl` and tell me its recorded % inhibition male (individual replicates) R4 on P. falciparum male gametocytes.
Key: 99.1

Exercise: Report measured % inhibition male (individual replicates) R4 on P. falciparum male gametocytes; entry: `CN(C)CCCOc1ccc(CN2CCC(c3c[nH]c4ccc(NCC5CCCCC5)cc34)CC2)cc1.O=C(O)C(F)(F)F`
Key: 94.6

Exercise: State recorded % inhibition male (individual replicates) R4 with P. falciparum male gametocytes, entry `CS(=O)(=O)O.FC(F)(F)COc1c(CCNCCCCNCCc2ccc3ccccc3c2OCC(F)(F)F)ccc2ccccc12` , no comment.
Key: 99.1

Exercise: Jot down % inhibition male (individual replicates) R4 (P. falciparum male gametocytes) of `COc1ccc(CCNCCCCCCNCCc2ccc(Cl)c3ccccc23)cc1OC.Cl` .
Key: 89.1

Exercise: Param request: % inhibition male (individual replicates) R4 | system P. falciparum male gametocytes | item `CCOc1cc(OCC)c2ccccc2c1CNCCCCCCNCc1c(OCC)cc(OCC)c2ccccc12.CS(=O)(=O)O`
Key: 100.2

---

Selectivity ratio F values for the compounds below.
System: P. falciparum female gametocytes
Assay: P. falciparum Dual Gamete Formation Assay (PfDGFA), female readout (Pfs25-positive female gametes)
Assay type: cell-based, Plasmodium falciparum NF54
Settings: HepG2 Tox50 versus female IC50
Form: value (number only, do not type unit).

Exercise: Consider the compound `Cn1c(-c2ccccc2)cc2c3c(N)nc(N)nc3ccc21` . State its measured Selectivity ratio F.
Key: 1.39

---

Tested on: P. falciparum female gametocytes
Assay: P. falciparum Dual Gamete Formation Assay (PfDGFA), female readout (Pfs25-positive female gametes)
Assay type: cell-based, Plasmodium falciparum NF54
Conditions: PfDGFA at 2µM, 24h preincubation with gametocytes; replicate R4
observation_type: % inhibition female (individual replicates) R4 (%)
The reply should be a number in %, with the unit left off.

In the examples that follow, each entry is paired with its recorded % inhibition female (individual replicates) R4.
COc1ccc2c(OC)c(CNCCCCCCNCc3ccc4cc(OC)ccc4c3OC)ccc2c1.CS(=O)(=O)O; 49.3
COc1cc(CNCCCCCCNCc2cc(OC)c3ccccc3c2OC)c(OC)c2ccccc12.CS(=O)(=O)O; 84.0
C=CCOc1ccc2ccccc2c1CNCCCCCCNCc1c(OCC=C)ccc2ccccc12.CS(=O)(=O)O; 51.0
Nc1nc(N)c2c(ccc3c2ccn3Cc2ccc3c(c2)OCO3)n1; 88.7
CCN(CC)CCOc1ccc(C(O)(C#CC(O)(c2ccc(Br)cc2)c2ccc(OCCN(CC)CC)cc2)c2ccc(Br)cc2)cc1 (centres unmarked); 25.4

Exercise: # return recorded % inhibition female (individual replicates) R4 for input `CN1CCc2cc(NS(=O)(=O)c3ccc(-c4ccc(Cl)cc4)cc3)c(OCCCN3CCCCC3)cc2CC1.Cl`
Key: 19.2

Exercise: Output measured % inhibition female (individual replicates) R4 for this item: `COc1ccccc1-c1nc2c(ccc3nc(N)nc(N)c32)[nH]1`
Key: 39.4

Exercise: State its % inhibition female (individual replicates) R4: Cc1ccccc1OCC(O)CNC1CCC(NCC(O)COc2ccccc2C)CC1 (centres unmarked)
Key: 27.5

---

Tested on: P. falciparum male gametocytes
Test: P. falciparum Dual Gamete Formation Assay (PfDGFA), male readout (exflagellation)
Type: cell-based, Plasmodium falciparum NF54
Settings: PfDGFA, 24 h incubation with gametocytes before induction, exflagellation readout; read-out: Male IC50
In this section, each of the molecules is paired with its reported IC50.
Response body: numeric value in nM, unit text excluded.

Study these solved cases before continuing.
COc1cc2ccccc2c(OC)c1CNCCCCCCNCc1c(OC)cc2ccccc2c1OC.CS(=O)(=O)O [TCMDC-137843]; 1660
COc1cc(CNCCCCCCNCc2cc(OC)c3ccccc3c2OC)c(OC)c2ccccc12.CS(=O)(=O)O [TCMDC-137502]; 1210
CC(=NNC(=S)Nc1ccccc1Cl)c1ccccn1 [TCMDC-124278]; 110
COc1ccc(NC(=O)c2cccc(Br)c2)cc1N1CCN(CCCCCCCN2CCN(c3cc(NC(=O)c4cccc(Br)c4)ccc3OC)CC2)CC1.Cl [TCMDC-139020]; 1980
CCCCCCC(N)c1ccc(OCCCOc2ccc(C(N)CCCCCC)cc2)cc1.Cl (stereo not drawn) [TCMDC-137621]; 1070
COc1cc(Nc2nccc(-c3c(-c4cccc(NC(=O)c5c(F)cccc5F)c4)nn4ncccc34)n2)cc(OC)c1OC [TCMDC-135684]; 270
C#CCCOc1ccc2ccccc2c1CNCCCCCCNCc1c(OCCC#C)ccc2ccccc12 [TCMDC-137832]; 1850
CS(=O)(=O)O.FC(F)(F)COc1c(CCNCCCCNCCc2ccc3ccccc3c2OCC(F)(F)F)ccc2ccccc12 [TCMDC-137169]; 810

Here is the next item to consider.
Exercise: Return reported IC50. Input molecule: CC(Cc1ccc(NC(=O)c2ccc(CNCCCCc3ccccc3)cc2)cc1)NCCc1cccc(Cl)c1.Cl (stereo not drawn) [TCMDC-139866]
Key: 1880

---

The entries below come with measured % inhibition male (individual replicates) R3 values attached.
Test system: P. falciparum male gametocytes
Test: P. falciparum Dual Gamete Formation Assay (PfDGFA), male readout (exflagellation)
Assay type: cell-based, Plasmodium falciparum NF54
Details: 2µM, 24h preincubation with gametocytes prior to induction of gametogenesis; replicate R3
Hi! Could you send only the number? It should be in %, unit omitted.

Consider the worked cases shown below.
COc1cc2ncnc(Nc3ccc(OCc4ccccc4)c(OCc4ccccc4)c3)c2cc1OC.Cl; 8.7
CC(C)(C)c1ccc(-c2cc3c(ccc4nc(N)nc(N)c43)[nH]2)cc1; 0.4
FC(F)(F)c1ccc2[nH]c(-c3ccc(-c4ccc(CNCCN5CCNCC5)cc4)s3)nc2c1.O=C(O)C(F)(F)F; 56.6
CC(=O)Nc1ccc2[nH]cc(C3CCN(CC4CCN(C(=O)/C=C/c5ccc(Cl)c(Cl)c5)CC4)CC3)c2n1; 26.0

Exercise: Look up P. falciparum male gametocytes data: % inhibition male (individual replicates) R3 of `COc1ccc(NC(=O)[C@H](CC(C)C)Nc2cc(C)nc(NCc3ccccc3C)n2)cc1.O=C(O)C(F)(F)F` , then report it.
Key: -6.1

Exercise: Write down measured % inhibition male (individual replicates) R3 (P. falciparum male gametocytes) for this compound. `O=C(NCCCCN1CCC(c2ccc3c(c2OCCN2CCCC2)CCCC3)CC1)c1ccc(-c2ccc(C(F)(F)F)cc2)cc1`
Key: -6.7

Exercise: Provide measured % inhibition male (individual replicates) R3 on P. falciparum male gametocytes for O=C(Nc1ccc(C(=O)OCC2CCCCC2)cc1)N[C@@H](Cc1ccc(O)cc1)C(=O)NC1CCN(Cc2ccc(O)cc2)C1.O=C(O)C(F)(F)F (stereo partly drawn) please.
Key: -12.1

Exercise: State recorded % inhibition male (individual replicates) R3 with P. falciparum male gametocytes, entry `CC(C)(C)c1ccc(N2C(N)=NC(N)=NC2(C)C)cc1.Cl` , no comment.
Key: 2.2

Exercise: Quote % inhibition male (individual replicates) R3 with test system P. falciparum male gametocytes for `C[C@H](Cc1ccc(S(=O)(=O)c2ccc(C[C@@H](C)NC[C@H](O)c3cccc(Cl)c3)cc2)cc1)NC[C@H](O)c1cccc(Cl)c1.Cl`
Key: 11.1

Exercise: Look up P. falciparum male gametocytes data: % inhibition male (individual replicates) R3 of `CCCCCc1ccc(N2C(N)=NC(N)=NC2(C)C)cc1.Cl` , then report it.
Key: 6.4

Exercise: Look up and report measured % inhibition male (individual replicates) R3 (P. falciparum male gametocytes) for the following compound: `COc1ccc(Cc2cnc3nc(N)nc(N)c3c2C)cc1OC.O=S(=O)(O)CCO`
Key: -15.1

Exercise: Identify measured % inhibition male (individual replicates) R3 obtained with P. falciparum male gametocytes for `Cl.c1ccc2c(Nc3ccc(Cc4ccc(Nc5c6ccccc6nc6ccccc56)cc4)cc3)c3ccccc3nc2c1` .
Key: 55.5

Exercise: State recorded % inhibition male (individual replicates) R3 with P. falciparum male gametocytes, entry `COc1ccc(CNC2CCN(C)CC2)cc1-c1ccc(S(=O)(=O)NC2CCC2)cc1.O=C(O)C(F)(F)F` , no comment.
Key: 27.2

Exercise: GET % inhibition male (individual replicates) R3 where system = P. falciparum male gametocytes and item = `CC(C)c1cc2c(ccc3nc(N)nc(N)c32)[nH]1`
Key: -19.2

Exercise: // fetch % inhibition male (individual replicates) R3; item: `Cc1nc2nc(N)nc(N)c2c(C)c1Cc1ccccc1Cl.Cl` ; system: P. falciparum male gametocytes
Key: -5.5
